settings: 293 K; 101 kPa; Liquid; Pendant drop method
measure: interfacial tension (mN/m)
The figure you give is taken to be in mN/m; do not add the unit.

Example cases with answers are listed next.
- compound: "CCn1cc[n+](C)c1.O=S(=O)([N-]S(=O)(=O)C(F)(F)F)C(F)(F)F + CCCCCCCC"
  value-units: "mN/m"
  interfacial tension: 12.23
- compound: "CCCC[n+]1ccn(C)c1.O=S(=O)([N-]S(=O)(=O)C(F)(F)F)C(F)(F)F + CCCCCCCCCC"
  value-units: "mN/m"
  interfacial tension: 9.43

I would be grateful if you could share the reported interfacial tension for CCCCCCCCn1cc[n+](C)c1.O=S(=O)([N-]S(=O)(=O)C(F)(F)F)C(F)(F)F + CCCCCCCCCC . 3.98

For CCCCn1cc[n+](C)c1.O=S(=O)([O-])C(F)(F)F [1-butyl-3-methylimidazolium trifluoromethanesulfonate] + CCCCCC , what is its reported interfacial tension? 9.07

Could you share which interfacial tension value was measured for CCCCCCCCn1cc[n+](C)c1.O=S(=O)([N-]S(=O)(=O)C(F)(F)F)C(F)(F)F + O ? 16.47

Quick check: interfacial tension of CCCCCC[n+]1ccn(C)c1.O=S(=O)([N-]S(=O)(=O)C(F)(F)F)C(F)(F)F + O ? 15.39

Form field: reported interfacial tension of CCCCCCCCn1cc[n+](C)c1.O=S(=O)([N-]S(=O)(=O)C(F)(F)F)C(F)(F)F + CCCCCC 3.12

Form field: reported interfacial tension of CCCCCC[n+]1ccn(C)c1.O=S(=O)([N-]S(=O)(=O)C(F)(F)F)C(F)(F)F + CCCCCCCCCC 6.59

Provenance of the data: the NIST ThermoML archive (doi:10.1016/j.fluid.2010.02.022)
